Target: SHP2 (Homo sapiens (Human), UniProt Q06124)
Experiment: SHP2 Allosteric Inhibition Assay (DiFMUP prompt fluorescence)
Details: 0.5 nM SHP2 activated with 0.5 μM peptide IRS1_pY1172(dPEG8)pY1222, substrate DiFMUP
Text: SHP2 Allosteric Inhibition Assay SHP2 is allosterically activated through binding of bis-tyrosyl-phosphorylated peptides to its Src Homology 2 (SH2) domains.
pIC50: −log10 of the molar value.
quantity kind: pIC50

compound: NCC1(c2ccncc2)CCN(c2cnc(-c3cccc(Cl)c3Cl)c(N)n2)CC1 [Example 17]
test system: SHP2 (Homo sapiens (Human), UniProt Q06124)
pIC50: 6.99

compound: NCC1(c2cnccn2)CCN(c2cnc(-c3cccc(Cl)c3Cl)c(N)n2)CC1 [Example 18]
test system: SHP2 (Homo sapiens (Human), UniProt Q06124)
pIC50: 7.03

compound: C[C@]1(N)CCN(c2cnc(-c3cccc(Cl)c3Cl)c(N)n2)C[C@@H]1O [Example 16]
test system: SHP2 (Homo sapiens (Human), UniProt Q06124)
pIC50: 7.03

compound: CCCC1(CN)CCN(c2cnc(-c3cccc(Cl)c3Cl)c(N)n2)CC1 [Example 15]
test system: SHP2 (Homo sapiens (Human), UniProt Q06124)
pIC50: 7.12

compound: NCC1(c2ccccn2)CCN(c2cnc(-c3cccc(Cl)c3Cl)c(N)n2)CC1 [Example 19]
test system: SHP2 (Homo sapiens (Human), UniProt Q06124)
pIC50: 6.96

* * *

Molecular target: SHP2 (Homo sapiens (Human), UniProt Q06124)
Assay: SHP2 Allosteric Inhibition Assay (DiFMUP prompt fluorescence)
Conditions: 0.5 nM SHP2 activated with 0.5 μM peptide IRS1_pY1172(dPEG8)pY1222, substrate DiFMUP
quantity kind: IC50 (µM)

compound: Nc1nc(N2CC3CNCC32)cnc1-c1cccc(Cl)c1Cl (centres unmarked)
quantity kind: IC50
result value: 0.404

I. Nc1nc(N2CCC3NCCC3C2)cnc1-c1cccc(Cl)c1Cl (centres unmarked)
II. Nc1nc(N2CC3CNCC3C2)cnc1-c1cccc(Cl)c1Cl (centres unmarked)
Would you mind telling me which has the lower recorded IC50 between I and II ? Return value: the label identifying the chosen record.
II
(II: 0.102 µM, I: 0.908 µM)
